Test system: SF-295
Experiment: NCI panel growth inhibition, sulforhodamine B
Format: cell-based, human
Conditions: SF-295, CNS cancer; drug for last 48 h of 72 h
measurement_kind: IC50 (nM)
Report only the number, with the unit nM understood.

Observed IC50 on SF-295, entry Nc1ccc(C2(c3ccc(N)cc3)C3CC4CC(C3)CC2C4)cc1 , equals 59

* * *

Test system: MALME-3M
Assay: NCI panel growth inhibition, sulforhodamine B
Assay type: cell-based
Details: Homo sapiens, Melanoma, drug for last 48 h of 72 h
measurement_kind: log10 IC50 (log10 of the value in µM)
Recall that a logarithmic scale is used here: each number is log10 of IC50 in µM.

Previously resolved entries follow.
Nc1ccc(Oc2ccc(C3(c4ccc(Oc5ccc(N)cc5)cc4)C4CC5CC(C4)CC3C5)cc2)cc1 ... 1.13
Nc1ccc(Oc2ccc(C34CC5CC(C3)CC(c3ccc(Oc6ccc(N)cc6C(F)(F)F)cc3)(C5)C4)cc2)c(C(F)(F)F)c1 ... 1.35
Nc1ccc(Oc2ccc(C34CC5CC(C3)CC(c3ccc(Oc6ccc(N)cc6)cc3)(C5)C4)cc2)cc1 ... 1.16
Nc1ccc(Oc2ccc(C3(c4ccc(Oc5ccc(N)c(O)c5)cc4)C4CC5CC(C4)CC3C5)cc2)cc1O ... 0.31

Next compound, log10 IC50 to be filled in.
According to the records, this compound Nc1ccc(Oc2ccc(C34CC5CC(C3)CC(c3ccc(Oc6ccc(N)c(O)c6)cc3)(C5)C4)cc2)cc1O displays log10 IC50 of 0.29

* * *

Tested on: HCT-116
Test: NCI panel growth inhibition, sulforhodamine B
Assay type: cell-based
Conditions: Homo sapiens; HCT-116, Colon cancer; drug for last 48 h of 72 h
measurement_kind: pIC50
Remember the convention: pIC50 equals -log10 of concentration in molar.

Nc1ccc(C2(c3ccc(N)cc3)C3CC4CC(C3)CC2C4)cc1 tested on HCT-116 gave pIC50: 4.68

HCT-116 pIC50 of Nc1ccc(C23CC4CC(C2)CC(c2ccc(N)cc2)(C4)C3)cc1 is 4.35

I looked up Nc1ccc(Oc2ccc(C34CC5CC(C3)CC(c3ccc(Oc6ccc(N)c(O)c6)cc3)(C5)C4)cc2)cc1O and its pIC50 for HCT-116 was 5.86

Item Nc1ccc(Oc2ccc(C3(c4ccc(Oc5ccc(N)c(O)c5)cc4)C4CC5CC(C4)CC3C5)cc2)cc1O ; assay system HCT-116; pIC50 reported as 5.80

* * *

Tested on: K-562
Assay: NCI panel growth inhibition, sulforhodamine B
Format: cell-based
Details: Homo sapiens, K562; K-562, Leukemia; drug for last 48 h of 72 h
// reported IC50 for each item listed
Give the value, in units of µM, as a plain number.

Some solved cases for reference:
Nc1ccc(Oc2ccc(C3(c4ccc(Oc5ccc(N)c(O)c5)cc4)C4CC5CC(C4)CC3C5)cc2)cc1O ... 1.98
Nc1ccc(Oc2ccc(C34CC5CC(C3)CC(c3ccc(Oc6ccc(N)cc6)cc3)(C5)C4)cc2)cc1 ... 7.08
Nc1ccc(C23CC4CC(C2)CC(c2ccc(N)cc2)(C4)C3)cc1 ... 14.6

Next item in the queue.
Simply: Nc1ccc(C2(c3ccc(N)cc3)C3CC4CC(C3)CC2C4)cc1 , K-562, IC50 = 10.3

* * *

Test system: HS 578T
Test: NCI panel growth inhibition, sulforhodamine B
Format: cell-based
Details: Homo sapiens, Breast cancer, drug for last 48 h of 72 h
measurement_kind: IC50 (µM)
Please respond with the number in µM and leave the unit unwritten.

Some compounds with known IC50 results, for comparison:
Nc1ccc(Oc2ccc(C34CC5CC(C3)CC(c3ccc(Oc6ccc(N)cc6)cc3)(C5)C4)cc2)cc1 ... 11.7
Nc1ccc(Oc2ccc(C3(c4ccc(Oc5ccc(N)cc5)cc4)C4CC5CC(C4)CC3C5)cc2)cc1 ... 4.91

response.value for Nc1ccc(Oc2ccc(C34CC5CC(C3)CC(c3ccc(Oc6ccc(N)cc6C(F)(F)F)cc3)(C5)C4)cc2)c(C(F)(F)F)c1 (field: IC50) = 17.1

// recorded IC50 for Nc1ccc(Oc2ccc(C34CC5CC(C3)CC(c3ccc(Oc6ccc(N)c(O)c6)cc3)(C5)C4)cc2)cc1O : 1.63

Kindly note the recorded IC50 for Nc1ccc(Oc2ccc(C3(c4ccc(Oc5ccc(N)c(O)c5)cc4)C4CC5CC(C4)CC3C5)cc2)cc1O , which is 2.35
